Data origin, for the record: patent US20200109188A1

Assign EC50 to each entry below.
# study_system: recombinant HA subtype H9 (A/chicken/HK/G9/97 (H9N2)) (influenza A virus)
# test_description: ELISA, rHA coated

Just so you know, measured EC50 for Antibody 10 (antibody, V domains shown) VH: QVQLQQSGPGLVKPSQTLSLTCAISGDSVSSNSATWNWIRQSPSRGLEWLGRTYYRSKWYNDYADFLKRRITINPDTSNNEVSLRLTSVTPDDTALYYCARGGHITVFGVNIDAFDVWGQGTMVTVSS VL: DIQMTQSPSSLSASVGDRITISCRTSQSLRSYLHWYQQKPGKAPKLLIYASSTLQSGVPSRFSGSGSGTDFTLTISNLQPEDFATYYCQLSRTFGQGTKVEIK came out at 2.7 µg/mL

Just so you know, measured EC50 for Antibody 6 (antibody, V domains shown) VH: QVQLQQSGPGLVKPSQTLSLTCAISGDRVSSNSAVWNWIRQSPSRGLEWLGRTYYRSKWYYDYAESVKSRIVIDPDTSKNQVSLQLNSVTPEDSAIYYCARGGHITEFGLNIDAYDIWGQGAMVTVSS VL: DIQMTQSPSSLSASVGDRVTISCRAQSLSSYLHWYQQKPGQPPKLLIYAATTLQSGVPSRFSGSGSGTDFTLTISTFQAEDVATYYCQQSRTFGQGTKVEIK came out at > 6 µg/mL

Just so you know, measured EC50 for Antibody 5 (antibody, V domains shown) VH: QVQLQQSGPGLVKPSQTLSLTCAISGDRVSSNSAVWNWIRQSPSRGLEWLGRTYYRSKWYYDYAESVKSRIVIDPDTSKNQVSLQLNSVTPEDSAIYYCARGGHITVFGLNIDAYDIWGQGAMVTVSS VL: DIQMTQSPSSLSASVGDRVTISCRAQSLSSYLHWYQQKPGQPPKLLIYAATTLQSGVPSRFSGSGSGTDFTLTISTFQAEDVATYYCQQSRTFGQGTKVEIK came out at > 6 µg/mL

Just so you know, measured EC50 for Antibody 8 (antibody, V domains shown) VH: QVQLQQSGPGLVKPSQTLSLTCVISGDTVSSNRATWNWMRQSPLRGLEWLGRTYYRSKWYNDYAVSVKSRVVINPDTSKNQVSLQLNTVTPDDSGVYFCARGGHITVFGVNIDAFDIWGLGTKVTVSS VL: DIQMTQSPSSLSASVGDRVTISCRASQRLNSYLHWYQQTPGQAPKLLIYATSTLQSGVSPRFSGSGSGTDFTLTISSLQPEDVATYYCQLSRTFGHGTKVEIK came out at > 6 µg/mL
